tested on: HS 578T breast; assay: NCI tumour cell line growth inhibition, 48 h
PROPERTY MEASURED: GI50

Some solved cases for reference:
- MOLECULE: "COC(=O)[C@]12CC[C@@H](C)[C@H](C)[C@@H]1C1=CC[C@@H]3[C@@]4(C)C[C@@H](OC(C)=O)[C@H](OC(C)=O)[C@@](C)(COC(C)=O)[C@@H]4[C@H](O)C[C@@]3(C)[C@]1(C)CC2"
  GI50: "8150 nM"
- MOLECULE: "COc1ccc(/C(=C(\\c2ccccc2)[N+](=O)[O-])c2ccc(OCCN3CCCC3)cc2)cc1"
  GI50: "2320 nM"
- MOLECULE: "NS(=O)(=O)c1cccc(Nc2cc(-c3ccc(F)cc3)[nH]n2)c1"
  GI50: "> 20800 nM"

// next entry
*Q* Reported GI50 for COc1cc(/C=N/NC(=O)c2cnn3c2NC(c2ccccc2)C3)ccc1OCc1ccccc1 (centres undefined) : what is it?
*A* 908 nM

###

tested on: OVCAR-3 ovarian; test: NCI tumour cell line growth inhibition, 48 h; in the data active = GI50 below about 0.43 µM; inactive = the rest
Output constraint: value belongs to active, inactive

Observe how each entry below is paired with its result.
- MOLECULE: "COc1cc(F)c(F)c(Nc2ccc(I)cc2F)c1NS(=O)(=O)C1(CC(O)CO)CC1 (centres undefined)"
  CATEGORY LABEL: "inactive"
- MOLECULE: "O=C(/C=C/c1ccco1)Nc1ncc(Cc2cc(Cl)ccc2Cl)s1"
  CATEGORY LABEL: "active"
- MOLECULE: "O=C1c2ccccc2-c2cn(Cc3ccccc3)c3cccc(c23)C1c1cccnc1 (centres undefined)"
  CATEGORY LABEL: "inactive"

Pending molecule:
*Q* For this molecule, state the assay outcome: C=CC[PH+](c1ccccc1)c1ccccc1.C=CC[PH+](c1ccccc1)c1ccccc1.[Pt+2].[S-]c1nc2ccccc2[nH]1.[S-]c1nc2ccccc2[nH]1
*A* inactive

###

tested on: SN12C renal; test: NCI tumour cell line growth inhibition, 48 h
PROPERTY MEASURED: TGI

Worked set:
- COMPOUND: "Cc1c(CCCl)c(Cl)n2c(nc3ccccc32)c1C#N"
  TGI: "1.5 µM"
- COMPOUND: "C#Cc1c(C)c(/C=C/C(C)=C\\C(=O)OC)n(C)c1C"
  TGI: "> 100 µM"
- COMPOUND: "CNC(=O)OC1/C(C)=C\\C(C)C(O)C(OC)CC(C)CC2=C(OC)C(=O)C=C(C2=O)N(C)C(=O)/C(C)=C/C=C\\C1OC (stereo not given)"
  TGI: "16.5 µM"
- COMPOUND: "C=C1C(C)C2C(Cc3ccccc3)NC(=O)C23C(OC(C)=O)C=CC(C)(O)C(=O)C(C)C/C=C/C3C1O (stereo not given)"
  TGI: "499 µM"
- COMPOUND: "CN(C)CCCn1c(-c2ccc(Br)cc2)csc1=Nc1ccccc1"
  TGI: "70.9 µM"

*Q* Please tell me: TGI of Cc1ccc(C)c(N2CCN(c3ccncc3N)CC2)c1 , system SN12C renal?
*A* > 100 µM

###

test system: SK-MEL-28 melanoma; experiment: NCI tumour cell line growth inhibition, 48 h; in the data active = GI50 below about 0.43 µM; inactive = the rest
Reply using exactly one outcome from active, inactive

Would you please look over these solved cases?
- MOLECULE: "Nc1nc(SCC#CCCl)c2[nH]cnc2n1"
  CATEGORY LABEL: "inactive"
- MOLECULE: "COc1cc(/C=N\\Nc2ccccc2)ccc1OC(=O)c1ccccc1"
  CATEGORY LABEL: "inactive"
- MOLECULE: "CC1OC(O[C@@H]2C=C3CC[C@@H]4[C@H](CC[C@]5(C)[C@@H](c6ccc(=O)oc6)CC[C@]45O)[C@@]3(C)CC2)C(O)C(O)C1O (stereo not given in full)"
  CATEGORY LABEL: "active"
- MOLECULE: "CN1CCN(Cc2ccc(NC(=O)c3cncc(C#Cc4c(N)ncc5ccccc45)c3)cc2C(F)(F)F)CC1"
  CATEGORY LABEL: "inactive"
- MOLECULE: "Oc1ccccc1/C=N\\NC(=S)Nc1ccc(F)cc1"
  CATEGORY LABEL: "inactive"

*Q* Per the assay record, what outcome was assigned to COc1ccc(/C=C\c2cc(OC)c(OC)c(OC)c2)cc1NC(=O)/C=C/c1cc(OC)c(OC)c(OC)c1 ?
*A* inactive

*Q* What call does the record list for OC[C@H]1C[C@](O)(c2ccccc2Cl)[C@@H](c2ccccc2Cl)O1 ?
*A* inactive

*Q* Hi, sorry to bother you, what did the test record for N#Cc1cnn(C(=O)c2nn(-c3ccc(Cl)cc3)cc2O)c1N ?
*A* inactive

*Q* # outcome recorded in this test, key = C=C1C(C)C2C(Cc3ccccc3)NC(=O)C23C(OC(C)=O)C=CC(C)(O)C(=O)C(C)C/C=C/C3C1O (stereo not given)
*A* inactive

*Q* # fetch the recorded call for COc1cc(C(=O)/C=C/c2c[nH]c3ccccc23)cc(OC)c1OC here
*A* inactive
